tested on: rodent lifetime carcinogenesis bioassay, tumor incidence TD50; assay: carcinogenic potency in animals, long-term in vivo studies, CPDB compilation (AID 1745844); details: rat; strain MRC; females; by gavage; site: lung; lesion: adenoma; dosed 73 weeks; study length 77 weeks
assay_readout: TD50 (mg/kg/day)
Return type: number; implicit unit mg/kg/day.

`CC(=O)CN(CC(C)=O)N=O` tested on rodent lifetime carcinogenesis bioassay, tumor incidence TD50 gave TD50: 14

###

system: rodent lifetime carcinogenesis bioassay, tumor incidence TD50; test: carcinogenic potency in animals, long-term in vivo studies, CPDB compilation (AID 1745844); conditions: mouse; strain Swiss; males; inhaled; site: any site (literature study); lesion: several types; types named in the paper; dosed 78 weeks; study length 145 weeks
assay_readout: TD50 (mg/kg/day)
Numbers only; they are read as mg/kg/day.

For reference, reported TD50 for `ClC=C(Cl)Cl` stands at 8070

###

test system: rodent lifetime carcinogenesis bioassay, tumor incidence TD50; assay: carcinogenic potency in animals, long-term in vivo studies, CPDB compilation (AID 1745844); details: rat; strain Charles River CD (Sprague-Dawley); females; i.p.; site: any site (literature study); lesion: several types; types named in the paper; dosed 26 weeks; study length 78 weeks
Numbered stars: 1 amine (or outer) side, 2 acyl side, 3 side chain; on linkers, the order of the positions; unused ones are H or OH. Bridge positions count the residues as written; N and C are the ends. Square brackets hold non-standard residues; d marks the D form. Peptide text beside a SMILES is read from it. I, II: the chains in the order shown. Actinocin(9to1) = Cc1c2oc3c(C)ccc(C(=O)[*:1])c3nc-2c(C(=O)[*:2])c(N)c1=O; NMeV = CN[C@H](C(=O)O)C(C)C; Sar = CNCC(=O)O
assay_readout: TD50 (mg/kg/day)
Reply with just the number (in mg/kg/day).

Observe how each entry below is paired with its result.
compound	assay_readout	result
Cc1c2oc3c(C)ccc(C(=O)N[C@@H]4C(=O)N[C@H](C(C)C)C(=O)N5CCC[C@H]5C(=O)N(C)CC(=O)N(C)[C@@H](C(C)C)C(=O)O[C@@H]4C)c3nc-2c(C(=O)N[C@@H]2C(=O)N[C@H](C(C)C)C(=O)N3CCC[C@H]3C(=O)N(C)CC(=O)N(C)[C@@H](C(C)C)C(=O)O[C@@H]2C)c(N)c1=O (I: T[dV]P[Sar][NMeV] / II: T[dV]P[Sar][NMeV]; ester I:1-I:C, II:1-II:C; linker I:N-II:N via Actinocin(9to1))	TD50	0.00145
O[C@@H]([C@H](O)[C@H](O)CBr)[C@H](O)CBr	TD50	12.5

Moving on to the next compound.
compound `CN(N=O)C(=O)N[C@@H](C=O)[C@@H](O)[C@H](O)[C@H](O)CO` , TD50 observed: 1.14

###

tested on: rodent lifetime carcinogenesis bioassay, tumor incidence TD50; assay: carcinogenic potency in animals, long-term in vivo studies, CPDB compilation (AID 1745844); conditions: rat; strain Sprague-Dawley; males; by gavage; site: nasal cavity; lesion: papilloma; dosed 26 weeks; study length 77 weeks
assay_readout: TD50

// `CCCN=[N+]([O-])CCC` : TD50 value = 0.00736 mg/kg/day

###

tested on: rodent lifetime carcinogenesis bioassay, tumor incidence TD50; test: carcinogenic potency in animals, long-term in vivo studies, CPDB compilation (AID 1745844); conditions: mouse; strain B6C3F1; males; in feed; site: liver; lesion: hepatocellular carcinoma; dosed 103 weeks; study length 103 weeks
assay_readout: TD50 (mg/kg/day)
# value in mg/kg/day; strip the unit string

Noted for `COP(=O)(OC)OC(=CCl)c1cc(Cl)c(Cl)cc1Cl` : its TD50 reads 1530

###

test system: rodent lifetime carcinogenesis bioassay, tumor incidence TD50; test: carcinogenic potency in animals, long-term in vivo studies, CPDB compilation (AID 1745844); conditions: rat; strain Sherman COBS; females; in feed; site: liver; lesion: neoplastic nodule; dosed 89 weeks; study length 95 weeks
assay_readout: TD50

Per the records, this molecule ( `Clc1ccc(-c2ccc(Cl)c(Cl)c2Cl)c(Cl)c1Cl` ) has TD50 equal to 1.76 mg/kg/day

###

test system: rodent lifetime carcinogenesis bioassay, tumor incidence TD50; test: carcinogenic potency in animals, long-term in vivo studies, CPDB compilation (AID 1745844); conditions: mouse; strain Swiss albino; males; by gavage; site: lung; lesion: adenocarcinoma; dosed 52 weeks; study length 134 weeks
assay_readout: TD50 (mg/kg/day)
Unit mg/kg/day implied. Number only.

# compound `CCCC/C=N/N(C)C=O` ; its TD50 = 11

###

system: rodent lifetime carcinogenesis bioassay, tumor incidence TD50; experiment: carcinogenic potency in animals, long-term in vivo studies, CPDB compilation (AID 1745844); conditions: rat; strain Fischer 344; males; by gavage; site: lung; lesion: carcinoma; dosed 30 weeks; study length 108 weeks
assay_readout: TD50

Value of TD50 reported for the compound `CCCCN(CCCC)N=O` is 1.16 mg/kg/day

###

tested on: rodent lifetime carcinogenesis bioassay, tumor incidence TD50; experiment: carcinogenic potency in animals, long-term in vivo studies, CPDB compilation (AID 1745844); details: mouse; strain B6C3F1; males; oral dosing; site: liver; lesion: hepatoma; dosed 84 weeks; study length 84 weeks
assay_readout: TD50

Case `CC(C)N(C(=O)SCC(Cl)=CCl)C(C)C` , rodent lifetime carcinogenesis bioassay, tumor incidence TD50, TD50 recorded as 19.4 mg/kg/day

###

system: rodent lifetime carcinogenesis bioassay, tumor incidence TD50; assay: carcinogenic potency in animals, long-term in vivo studies, CPDB compilation (AID 1745844); conditions: mouse; strain B6C3F1; males; in feed; site: all sites; lesion: angiosarcoma + hemangioma + hemangiosarcoma; dosed 103 weeks; study length 104 weeks
assay_readout: TD50

// field: TD50; key: `Nc1ccccc1-c1ccccc1` ; value = 1250 mg/kg/day

###

test system: rodent lifetime carcinogenesis bioassay, tumor incidence TD50; test: carcinogenic potency in animals, long-term in vivo studies, CPDB compilation (AID 1745844); details: rat; strain Fischer 344; males; in feed; site: adrenal medulla; lesion: pheochromocytoma benign, bilateral + pheochromocytoma, malignant + pheochromocytoma malignant, bilateral + pheochromocytoma, b; dosed 104 weeks; study length 104 weeks
assay_readout: TD50 (mg/kg/day)
The answer is to be given in mg/kg/day; state only the numeric part.

Lab note: `O=C1OC(c2ccc(O)cc2)(c2ccc(O)cc2)c2ccccc21` gave TD50 of 533

###

system: rodent lifetime carcinogenesis bioassay, tumor incidence TD50; assay: carcinogenic potency in animals, long-term in vivo studies, CPDB compilation (AID 1745844); conditions: mouse; strain B6C3F1; males; in feed; site: stomach; lesion: squamous-cell carcinoma + squamous-cell papilloma; dosed 103 weeks; study length 104 weeks
assay_readout: TD50

The molecule listed as O=P(OCC(Br)CBr)(OCC(Br)CBr)OCC(Br)CBr (stereo unspecified) has a reported TD50 of 197 mg/kg/day

###

system: rodent lifetime carcinogenesis bioassay, tumor incidence TD50; assay: carcinogenic potency in animals, long-term in vivo studies, CPDB compilation (AID 1745844); conditions: rat; strain Fischer 344; males; in feed; site: pancreatic islets; lesion: islet-cell adenoma; dosed 103 weeks; study length 104 weeks
assay_readout: TD50 (mg/kg/day)
# number only, unit mg/kg/day dropped from output

> print(dat)
                            smiles.text  assay.readout  units.text  result
1  Nc1ccc(N)c2c1C(=O)c1c(N)ccc(N)c1C2=O           TD50   mg/kg/day     810

Okay, next one:
// TD50 (rodent lifetime carcinogenesis bioassay, tumor incidence TD50) for `Cc1c(N)cccc1N` = 140

###

test system: rodent lifetime carcinogenesis bioassay, tumor incidence TD50; assay: carcinogenic potency in animals, long-term in vivo studies, CPDB compilation (AID 1745844); details: rat; strain Osborne-Mendel; females; in feed; site: thyroid gland; lesion: follicular-cell adenoma; dosed 80 weeks; study length 108 weeks
assay_readout: TD50

Param item: C=C1C(CCl)(CCl)C2(Cl)C(Cl)C(Cl)C1(Cl)C2(Cl)Cl (stereo unspecified) ; param system: rodent lifetime carcinogenesis bioassay, tumor incidence TD50; output TD50: 209 mg/kg/day

###

system: rodent lifetime carcinogenesis bioassay, tumor incidence TD50; test: carcinogenic potency in animals, long-term in vivo studies, CPDB compilation (AID 1745844); details: rat; strain F344/DuCrj; males; in drinking water; site: mammary gland; lesion: fibroma; dosed 99 weeks; study length 111 weeks
assay_readout: TD50 (mg/kg/day)
Response body: numeric value in mg/kg/day, unit text excluded.

Per the record, `CCN(N=O)C(N)=O` has TD50 of 0.889

###

tested on: rodent lifetime carcinogenesis bioassay, tumor incidence TD50; assay: carcinogenic potency in animals, long-term in vivo studies, CPDB compilation (AID 1745844); conditions: rat; strain Osborne-Mendel; males; by gavage; site: liver; lesion: neoplastic nodule; dosed 104 weeks; study length 105 weeks
assay_readout: TD50 (mg/kg/day)
Give the number; mg/kg/day is assumed, so skip it.

Lab note: `Clc1cc2c(cc1Cl)Oc1cc(Cl)c(Cl)cc1O2` gave TD50 of 0.000391
